# Assay type: in vivo, human
# run_parameters: human, plasma, oral, 20 mg
endpoint_name: Tmax

- smiles_code: "Cc1[nH]c2ccccc2c1CCNCc1ccc(/C=C/C(=O)NO)cc1"
  reported_measurement: "1 h"

###

# Assay type: in vivo, human
# run_parameters: human, plasma, po, 20 mg

- compound: "Cc1[nH]c2ccccc2c1CCNCc1ccc(/C=C/C(=O)NO)cc1 [Panobinostat]"
  AUC(0-inf) / µg·h/mL: 0.133

###

# Assay type: in vivo, human
# run_parameters: human, plasma, oral, 20 mg
endpoint_name: half-life (h)

- compound: "Cc1[nH]c2ccccc2c1CCNCc1ccc(/C=C/C(=O)NO)cc1 [Panobinostat]"
  reported_measurement: 14

###

# Format: in vivo, human
# run_parameters: human, plasma, po, 20 mg

- smiles_code: "Cc1[nH]c2ccccc2c1CCNCc1ccc(/C=C/C(=O)NO)cc1"
  Cmax, ng/mL: 18.5
